TARGET_OR_TEST_SYSTEM: prolyl endopeptidase (Sus scrofa)
Construct: porcine kidney enzyme which was prepared according to methods of Walter and Yoshimoto et al; from tissue; host or cells: porcine kidney
ASSAY_EXPLANATION: Prolyl endopeptidase-inhibitory activity in vitro (porcine kidney enzyme, Z-Gly-Pro-p-nitroanilide substrate)
Assay type: biochemical
CONDITION_DETAILS: porcine kidney enzyme, pH 7.8, 37° C., 20 min
PARAMETER_MEASURED: IC50 (µg/mL)

{"ITEM_SMILES": "O=C(c1cccs1)[C@@H]1CCCN1C(=O)[C@@H]1CCCN1C(=O)CCCc1ccccc1", "IC50 / µg/mL": 0.81}

(1) O=C(c1cncs1)[C@@H]1CCCN1C(=O)[C@@H]1CCCN1C(=O)CCCc1ccccc1
(2) O=C(c1nccs1)[C@@H]1CCCN1C(=O)[C@@H]1CCCN1C(=O)CCCc1ccccc1
In the pair 1 and 2 , the larger recorded IC50 belongs to which? Reply with the label of the item you choose.
1

====

TARGET_OR_TEST_SYSTEM: prolyl endopeptidase (Sus scrofa)
Construct: porcine kidney enzyme which was prepared according to methods of Walter and Yoshimoto et al; from tissue; host or cells: porcine kidney
ASSAY_EXPLANATION: Prolyl endopeptidase-inhibitory activity in vitro (porcine kidney enzyme, Z-Gly-Pro-p-nitroanilide substrate)
Assay type: biochemical
PARAMETER_MEASURED: IC50 (nM)
// note: answer is a bare numeric in nM

{"COMPOUND": "O=C(c1nc2ccccc2s1)[C@@H]1CCCN1C(=O)[C@@H]1CCCN1C(=O)OCc1ccccc1 [Example 17]", "UNIT": "nM", "IC50": 3.78}

Hello, I am looking for reported IC50 with prolyl endopeptidase (Sus scrofa) for O=C(c1nc2ccccc2s1)[C@@H]1CCCN1C(=O)[C@@H]1Cc2ccccc2N1C(=O)CCCc1ccccc1 [Example 19] . Could you help?
5.44

What would you report for COc1nccnc1C(=O)[C@@H]1CCCN1C(=O)[C@@H]1CCCN1C(=O)CCCc1ccccc1 [Example 40] ?
33.3

What would you report for O=C(c1cncnc1)[C@@H]1CCCN1C(=O)[C@@H]1CCCN1C(=O)CCCc1ccccc1 [Example 31] ?
64.2

What would you report for O=C(c1nccs1)[C@@H]1CCCN1C(=O)[C@@H]1Cc2ccccc2N1C(=O)OCc1ccccc1 [Example 8] ?
3.68

====

TARGET_OR_TEST_SYSTEM: prolyl endopeptidase (Sus scrofa, UniProt P23687)
Construct: porcine kidney enzyme which was prepared according to methods of Walter and Yoshimoto et al; from tissue; host or cells: porcine kidney
Sequence (P23687 whole entry): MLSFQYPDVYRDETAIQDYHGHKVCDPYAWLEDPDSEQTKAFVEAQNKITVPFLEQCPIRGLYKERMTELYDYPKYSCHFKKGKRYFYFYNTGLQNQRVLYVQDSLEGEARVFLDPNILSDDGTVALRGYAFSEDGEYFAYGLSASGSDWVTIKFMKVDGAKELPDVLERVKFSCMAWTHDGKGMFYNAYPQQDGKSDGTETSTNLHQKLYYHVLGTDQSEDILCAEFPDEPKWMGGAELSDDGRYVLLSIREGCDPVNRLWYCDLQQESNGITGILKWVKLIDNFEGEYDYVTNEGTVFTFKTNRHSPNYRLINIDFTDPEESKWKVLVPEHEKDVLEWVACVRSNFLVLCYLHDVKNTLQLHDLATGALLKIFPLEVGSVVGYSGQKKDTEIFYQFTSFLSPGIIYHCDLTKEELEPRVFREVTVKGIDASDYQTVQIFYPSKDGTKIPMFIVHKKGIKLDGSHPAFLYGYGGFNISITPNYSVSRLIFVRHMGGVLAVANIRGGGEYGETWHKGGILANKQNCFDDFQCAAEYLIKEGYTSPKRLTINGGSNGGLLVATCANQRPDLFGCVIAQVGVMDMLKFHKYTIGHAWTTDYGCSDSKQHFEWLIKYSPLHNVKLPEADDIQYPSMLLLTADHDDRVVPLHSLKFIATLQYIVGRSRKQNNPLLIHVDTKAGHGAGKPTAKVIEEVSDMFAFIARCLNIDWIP
ASSAY_EXPLANATION: Prolyl endopeptidase-inhibitory activity in vitro (porcine kidney enzyme, Z-Gly-Pro-p-nitroanilide substrate)
Format: biochemical
PARAMETER_MEASURED: pIC50
As a rule, pIC50 stands for the negative log10 of the concentration, concentration in M.

{"MOLECULE": "O=C(c1ccccn1)[C@@H]1CCCN1C(=O)[C@@H]1CCCN1C(=O)CCCc1ccccc1 [Example 32]", "pIC50": 8.15}

Value lookup for pIC50; key = O=C(c1nccs1)[C@@H]1CCCN1C(=O)[C@@H]1CCCN1C(=O)OCc1ccccc1 [Example 4]
8.24

What would you report for O=C(c1nc[nH]n1)[C@@H]1CCCN1C(=O)[C@@H]1CCCN1C(=O)CCCc1ccccc1 [Example 34] ?
8.21

What would you report for O=C(C1=NCCS1)[C@@H]1CCCN1C(=O)[C@@H]1CCCN1C(=O)CCCc1ccccc1 [Example 41] ?
8.40

What would you report for O=C(c1nccs1)[C@@H]1CCCN1C(=O)[C@@H]1Cc2ccccc2N1C(=O)CCCc1ccccc1 [Example 9] ?
8.26

What would you report for O=C(CSCc1ccccc1)C1CCCCC1C(=O)N1CCC[C@H]1C(=O)c1nccs1 (stereo partly shown) [Example 16] ?
7.27

What would you report for O=C(c1nc2ccccc2o1)[C@@H]1CCCN1C(=O)[C@@H]1CCCN1C(=O)CCCc1ccccc1 [Example 36] ?
8.38

What would you report for O=C(c1nc2ccccc2s1)[C@@H]1CCCN1C(=O)[C@@H]1Cc2ccccc2N1C(=O)OCc1ccccc1 [Example 18] ?
8.13

What would you report for O=C(CSCc1ccccc1)C1CCCCC1C(=O)N1CCC[C@H]1C(=O)c1nc2ccccc2s1 (stereo partly shown) [Example 22] ?
7.90

What would you report for O=C(c1cccnc1)[C@@H]1CCCN1C(=O)[C@@H]1CCCN1C(=O)CCCc1ccccc1 [Example 30] ?
5.58

====

TARGET_OR_TEST_SYSTEM: prolyl endopeptidase (Sus scrofa)
Construct: porcine kidney enzyme which was prepared according to methods of Walter and Yoshimoto et al; from tissue; host or cells: porcine kidney
ASSAY_EXPLANATION: Prolyl endopeptidase-inhibitory activity in vitro (porcine kidney enzyme, Z-Gly-Pro-p-nitroanilide substrate)
Format: biochemical
In this section we review reported pIC50 values for a set of compounds.
As a rule, pIC50 stands for the negative log10 of the concentration, concentration in M.

Reference set (4 entries):
{"COMPOUND": "O=C(c1nc2ccccc2[nH]1)[C@@H]1CCCN1C(=O)[C@@H]1CCCN1C(=O)CCCc1ccccc1", "pIC50": 8.42}
{"COMPOUND": "O=C(c1nc2ccccc2s1)[C@@H]1CCCN1C(=O)[C@@H]1C[C@@H](Sc2ccccc2)CN1C(=O)OCc1ccccc1", "pIC50": 8.61}
{"COMPOUND": "O=C(c1nc2ncccc2[nH]1)[C@@H]1CCCN1C(=O)[C@@H]1CCCN1C(=O)CCCc1ccccc1", "pIC50": 8.22}
{"COMPOUND": "O=C(c1nc2ccccc2s1)[C@@H]1CCCN1C(=O)[C@@H]1C[C@@H](Sc2ccccc2)CN1C(=O)CCCc1ccccc1", "pIC50": 8.75}

Value lookup for pIC50; key = O=C(c1nccs1)[C@@H]1CCCN1C(=O)[C@@H]1CC2CCCCC2N1C(=O)CCCc1ccccc1 (stereo partly drawn)
8.62

What would you report for `O=C(c1nc2ncccc2o1)[C@@H]1CCCN1C(=O)[C@@H]1CCCN1C(=O)CCCc1ccccc1` ?
8.32

What would you report for O=C(c1nccs1)[C@@H]1CCCN1C(=O)[C@@H]1CC2CCCCC2N1C(=O)OCc1ccccc1 (stereo partly drawn) ?
8.37

What would you report for `O=C(c1nccs1)[C@@H]1CCCN1C(=O)[C@@H]1C[C@@H](Sc2ccccc2)CN1C(=O)OCc1ccccc1` ?
8.32

What would you report for `Cc1nc(C(=O)[C@@H]2CCCN2C(=O)[C@@H]2CCCN2C(=O)CCCc2ccccc2)sc1C` ?
8.22

====

In this section we review reported pIC50 values for a set of molecules.
TARGET_OR_TEST_SYSTEM: prolyl endopeptidase (Sus scrofa, UniProt P23687)
Construct: porcine kidney enzyme which was prepared according to methods of Walter and Yoshimoto et al; from tissue; host or cells: porcine kidney
ASSAY_EXPLANATION: Prolyl endopeptidase-inhibitory activity in vitro (porcine kidney enzyme, Z-Gly-Pro-p-nitroanilide substrate)
Type: biochemical
As a rule, pIC50 stands for the negative log10 of the concentration, concentration in M.

Reference set (2 entries):
{"ITEM_SMILES": "O=C(c1nc2ccccc2[nH]1)[C@@H]1CCCN1C(=O)[C@@H]1CCCN1C(=O)OCc1ccccc1", "pIC50": 8.12}
{"ITEM_SMILES": "O=C(c1nccs1)[C@@H]1CCCN1C(=O)[C@@H]1C[C@@H](Sc2ccccc2)CN1C(=O)CCCc1ccccc1", "pIC50": 8.95}

Now consider the entry below.
Value lookup for pIC50; key = `O=C(c1cocn1)[C@@H]1CCCN1C(=O)[C@@H]1Cc2ccccc2N1C(=O)OCc1ccccc1`
8.02
